Growth Rate: recorded values
- Test system: U2OS
- ASSAY: Incucyte cell viability with U2OS; note: unitless GR value; below 1 slowed growth and below 0 cell loss
- Assay type: toxicity, cell-based
- STUDY CONDITIONS: human, 24 h, 10 µM, compound concentration 10 uM, replicate number 2

COMPOUND	ASSAY TARGET	Growth Rate
Cl.Cl.Nc1nccc(-c2c(-c3ccc(F)cc3)ncn2C2CCCCC2)n1	U2OS	0.81
Cn1ccc(Cn2cnc(-c3ccc(F)cc3)c2-c2ccnc3[nH]ccc23)n1	U2OS	0.89
Cc1sc(C(=O)c2cncnc2N[C@@H]2C[C@H](COS(N)(=O)=O)[C@@H](O)C2)cc1[C@@H]1NCCc2ccc(Cl)cc21	U2OS	0.3
CC(C)Oc1ccc(-c2cnc3c(-c4ccnc5ccccc45)cnn3c2)cc1	U2OS	0.97
CC(C)(C)c1cc(NC(=O)c2csc(Nc3ccccn3)n2)no1	U2OS	0.97
CC(C)(C)c1ccc2c(c1)CC[C@H]2NC(=O)Nc1cccc2[nH]ncc12 [ABT-102]	U2OS	0.9
CCN1C(=O)/C(=C(\NC2CCN(C)CC2)c2ccc3c(c2)OCO3)c2cc(C(C)=O)ccc21	U2OS	0.95
Fc1cccc(-n2cnc3c(NCc4nc5ccc(F)c(F)c5[nH]4)nc(N4CCOCC4)nc32)c1	U2OS	0.38
Cc1cc(-c2cc3ncccc3c(OC[C@H]3CCCNC3)n2)ccc1N(C)C.O=C(O)C(F)(F)F	U2OS	0.16
COc1cccc(-c2c(C)c(Cc3c(F)cccc3C(F)(F)F)c3n(c2=O)[C@@H]([C@@H](N)c2ccccc2)CS3)c1F	U2OS	0.93
CC(C)(C)C(=O)NCc1ccc(Cl)c(C(=O)Nc2ncc[nH]2)c1 [LY-3031207]	U2OS	0.94
CCOc1ccccc1C(=O)NCC1(N2CCN(CC)CC2)CCCCC1	U2OS	0.94
Cl.Cl.Fc1ccc([C@@H]2CCNC[C@H]2COc2ccc3c(c2)OCO3)cc1.Fc1ccc([C@@H]2CCNC[C@H]2COc2ccc3c(c2)OCO3)cc1.O [PAROXETINE HYDROCHLORIDE]	U2OS	0.98
CN(C)[C@H]1CCN(c2cc(C(F)(F)F)c(C#N)c(Nc3cccc(CCC(=O)O)c3)n2)C1.O=C(O)C(F)(F)F	U2OS	0.88
COc1ccc(OC(=O)N(CC(=O)O)Cc2ccc(OCCc3nc(-c4ccccc4)oc3C)cc2)cc1 [MURAGLITAZAR]	U2OS	0.87
CC1(C)CCC[C@]2(C)[C@@H](C=O)C(C=O)=CC[C@@H]12 [POLYGODIAL]	U2OS	0.88
CN1CCN(C(=O)c2ccc(N(C)c3ncc(C(F)(F)F)c(N[C@@H]4CCC[C@@H]4C(N)=O)n3)cc2)CC1.Cl	U2OS	1
